Numbers sourced from paper PMC10797628.

- tgt: human 5-HT1B receptor (Homo sapiens)
- Construct: host or cells: HEK293T
- Sequence (P28222 whole entry): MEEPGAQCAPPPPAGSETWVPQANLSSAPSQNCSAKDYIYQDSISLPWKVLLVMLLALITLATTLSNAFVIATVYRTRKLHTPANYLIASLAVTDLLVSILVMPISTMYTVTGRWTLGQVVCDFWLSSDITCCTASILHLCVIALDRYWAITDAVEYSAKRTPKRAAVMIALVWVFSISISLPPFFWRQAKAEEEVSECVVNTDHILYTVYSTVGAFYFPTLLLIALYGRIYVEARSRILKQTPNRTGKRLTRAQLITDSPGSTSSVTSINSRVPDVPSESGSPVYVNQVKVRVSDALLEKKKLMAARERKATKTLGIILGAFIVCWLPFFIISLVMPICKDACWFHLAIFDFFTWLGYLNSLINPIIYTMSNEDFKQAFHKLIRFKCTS
- test.name: cAMP accumulation (LANCE Ultra TR-FRET) in HEK293T cells, WT 5-HT1B
- Type: cell-based
- condition.details: 5-HT1B pEC50, WT receptor; cAMP accumulation, HEKt cells; mean ± SD
pEC50: −log10 of the molar value.
Listed here are compounds together with their documented pEC50.
assay.readout: pEC50

>  <compound>
CN(C)[C@H]1CCc2c(cccc2-c2cccs2)C1 [(S)-TAT]

>  <assay.readout>
pEC50

>  <measured.number>
7.80

$$$$
>  <compound>
CCCN(CCC)[C@H]1CCc2c(cccc2-c2ccccc2Cl)C1 [(S)-DCPT]

>  <assay.readout>
pEC50

>  <measured.number>
9.54

$$$$
>  <compound>
CN(C)[C@H]1CCc2c(cccc2-c2cccc3ccccc23)C1 [(S)-NAP]

>  <assay.readout>
pEC50

>  <measured.number>
7.46

$$$$
>  <compound>
CN(C)[C@H]1CCc2c(cccc2-c2ccccc2)C1 [(S)-5-PAT]

>  <assay.readout>
pEC50

>  <measured.number>
7.84

$$$$
>  <compound>
CN(C)[C@H]1CCc2c(cccc2-c2ccccc2Cl)C1 [(S)-CPT]

>  <assay.readout>
pEC50

>  <measured.number>
9.46

$$$$
>  <compound>
CN(C)[C@H]1CCc2c(cccc2-c2c(F)cccc2F)C1

>  <assay.readout>
pEC50

>  <measured.number>
8.68

$$$$
>  <compound>
CN(C)[C@H]1CCc2c(cccc2-c2cccn2C)C1 [(S)-NMP]

>  <assay.readout>
pEC50

>  <measured.number>
7.95

$$$$
>  <compound>
CN(C)[C@H]1CCc2c(cccc2-c2ccco2)C1 [(S)-FAT]

>  <assay.readout>
pEC50

>  <measured.number>
6.93

$$$$
>  <compound>
CN(C)[C@H]1CCc2c(cccc2-c2ccccc2F)C1 [(S)-FPT]

>  <assay.readout>
pEC50

>  <measured.number>
9.31

$$$$
>  <compound>
CCCN(CCC)[C@H]1CCc2c(cccc2-c2ccccc2F)C1 [(S)-DFPT]

>  <assay.readout>
pEC50

>  <measured.number>
8.91

$$$$
